The origin of these recorded values is the supplement of paper PMC10933113.

efficacy of cysteine peptide change overview
- Test system: cysteine peptide Ac-RFAACAA-COOH
- procedure.text: efficacy of cysteine peptide change (negative = depletion) (% activity); higher = less depletion
- condition.set: incubation time: 24 h

Below, each entry is followed by its recorded efficacy of cysteine peptide change result.
Nc1ccc(Cl)cc1N :: -99.1
c1ccc(SCCSc2ccccc2)cc1 :: 3.83
Sc1nc2ccccc2s1 :: -86.4
CNC(=S)NN [N-Methylhydrazinecarbothioamide] :: -58.5
Clc1ccc(C(Cn2ccnc2)OCc2c(Cl)cccc2Cl)c(Cl)c1 (centres undefined) :: 1.83

Query: Requested field: efficacy of cysteine peptide change. Item: CC(=O)Oc1ccc(C2(c3ccc(OC(C)=O)cc3)C(=O)Nc3ccccc32)cc1 [Oxyphenisatin acetate]
Reply: 0.29

Query: Requested field: efficacy of cysteine peptide change. Item: O=C(O)c1cn(C2CC2)c2cc(N3CCNCC3)c(F)cc2c1=O
Reply: 8.17

Query: Requested field: efficacy of cysteine peptide change. Item: NC(=O)N/N=C/c1ccc([N+](=O)[O-])o1
Reply: -39.2

Query: Requested field: efficacy of cysteine peptide change. Item: O=C(Oc1ccccc1)c1cccc(C(=O)Oc2ccccc2)c1 [Diphenyl isophthalate]
Reply: -4.99
